biological target: Oxoeicosanoid receptor 1 (Homo sapiens, UniProt Q8TDS5); assay: Antagonist activity at OXE receptor in human neutrophils assessed as inhibition of 5-oxo-ETE-induced calcium mobilization incubated for 2 mins followed by 5-oxo-ETE addition measured after 1 min by fluorescence assay; type: functional
Sequence (Q8TDS5 whole entry): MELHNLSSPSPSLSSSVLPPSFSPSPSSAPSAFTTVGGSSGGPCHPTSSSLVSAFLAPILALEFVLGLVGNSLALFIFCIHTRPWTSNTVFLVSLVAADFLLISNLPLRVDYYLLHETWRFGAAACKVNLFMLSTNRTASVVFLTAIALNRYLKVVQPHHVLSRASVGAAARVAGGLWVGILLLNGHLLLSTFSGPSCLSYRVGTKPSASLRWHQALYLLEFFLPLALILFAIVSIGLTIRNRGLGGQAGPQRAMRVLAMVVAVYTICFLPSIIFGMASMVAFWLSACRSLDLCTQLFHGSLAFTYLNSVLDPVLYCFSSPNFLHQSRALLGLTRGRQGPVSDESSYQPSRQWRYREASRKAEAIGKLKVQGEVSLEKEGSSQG
# maps each entry to its IC50
The answer is to be given in nM; state only the numeric part.

compound: C[C@@H](CC(=O)O)CC(=O)c1c([C@@H](O)CCCCCc2ccccc2)n(C)c2ccc(Cl)cc12
system tested: Oxoeicosanoid receptor 1 (Homo sapiens, UniProt Q8TDS5)
IC50 / nM: 120

compound: C[C@H](CC(=O)O)CC(=O)c1c(CCCCCCc2ccccc2)n(C)c2ccc(Cl)cc12
system tested: Oxoeicosanoid receptor 1 (Homo sapiens, UniProt Q8TDS5)
IC50 / nM: 0.12

compound: CC(CC(=O)O)CC(=O)n1c(CCCCCCc2ccccc2)cc2ccc(Cl)cc21 (configuration not stated)
system tested: Oxoeicosanoid receptor 1 (Homo sapiens, UniProt Q8TDS5)
IC50 / nM: 12

compound: C[C@H](CC(=O)O)CC(=O)c1c([C@H](O)CCCCCc2ccccc2)n(C)c2ccc(Cl)cc12
system tested: Oxoeicosanoid receptor 1 (Homo sapiens, UniProt Q8TDS5)
IC50 / nM: 260

compound: CC(CC(=O)O)CC(=O)n1c(CCCCCc2ccccc2)cc2ccc(Cl)cc21 (racemic)
system tested: Oxoeicosanoid receptor 1 (Homo sapiens, UniProt Q8TDS5)
IC50 / nM: 2.1

compound: CC(CC(=O)O)CC(=O)c1c(CCCCCCc2ccccc2)n(C)c2ccc(Cl)cc12 (racemic)
system tested: Oxoeicosanoid receptor 1 (Homo sapiens, UniProt Q8TDS5)
IC50 / nM: 0.28

compound: CC(CC(=O)O)CC(=O)c1c(CCCCCC(F)(F)F)n(C)c2ccc(Cl)cc12 (configuration not stated)
system tested: Oxoeicosanoid receptor 1 (Homo sapiens, UniProt Q8TDS5)
IC50 / nM: 38

compound: C[C@@H](CC(=O)O)CC(=O)c1c([C@H](O)CCCCCc2ccccc2)n(C)c2ccc(Cl)cc12
system tested: Oxoeicosanoid receptor 1 (Homo sapiens, UniProt Q8TDS5)
IC50 / nM: 750

Ask | Fill blank: measured IC50 of the compound CC(CC(=O)O)CC(=O)n1c(CCCCc2ccccc2)cc2ccc(Cl)cc21 (configuration not stated) is ____.
Reply | 18

Ask | Fill blank: measured IC50 of the compound CC(CC(=O)O)CC(=O)n1c(CCCc2ccccc2)cc2ccc(Cl)cc21 (configuration not stated) is ____.
Reply | 210
